system: U2OS; assay: Incucyte cell viability with U2OS; assay type: toxicity, cell-based; details: human, 0 h, 10 µM, compound concentration 10 uM, replicate number 1, timepoint 0 hours; note: unitless GR value; below 1 slowed growth and below 0 cell loss
Overview of recorded Growth Rate for various compounds
Just the number, please, no unit attached.

Completed entries (count: 5):
INSERT INTO measurements (compound, measured_number) VALUES
  ('COc1ccc2nc3ccc(OC)cc3c(SCCCN)c2c1.Cl', -0.75),
  ('CN(CCN1CCC(OC(=O)Nc2ccccc2-c2ccccc2)CC1)C(=O)c1ccc(CN2CCC(C(N)=O)CC2)cc1', 0.88),
  ('c1cc(OCCCN2CCCCC2)ccc1CN1CCCCC1', -0.13),
  ('O=C(O)CCC/C=C\C[C@H]1C(=O)C[C@@H](O)[C@@H]1/C=C/[C@@H](O)CCc1ccccc1', 0.49),
  ('CN(c1ncccc1CNc1ccnc(-c2cc3cc(Cl)ccc3[nH]2)n1)S(C)(=O)=O', -0.74);

--- query ---
[in] Consider the compound shown here: CN(C)C/C=C/C(=O)Nc1ccc(C(=O)N2CCCC(Nc3ncc(Cl)c(-c4c[nH]c5ccccc45)n3)C2)cc1 (stereo not given) What is its recorded Growth Rate?
[out] -0.56

====

system: Fibroblast; assay: Incucyte cell viability with human fibroblast; type: toxicity, cell-based; settings: 24 h, 10 µM, compound concentration 10 uM, replicate number 2, timepoint 24 hours; note: unitless GR value; below 1 slowed growth and below 0 cell loss
reported property: Growth Rate
Answer using only a numeral; do not append any unit.

INSERT INTO assay_data (compound, reported_property, measured_number) VALUES
  ('C[N+]1(C)[C@@H]2C[C@@H](OC(=O)C(O)(c3cccs3)c3cccs3)C[C@H]1[C@@H]1O[C@@H]12.O.[Br-] [TIOTROPIUM BROMIDE]', 'Growth Rate', 0.7);

[in] // returns reported Growth Rate for input "CCCCC/C=C\C/C=C\C/C=C\C/C=C\CCCC(=O)NCC(=O)O"
[out] 0.79

[in] What about "CCNC(=O)c1cc2c(-c3cc(C(C)(C)O)ccc3Oc3c(C)cc(F)cc3C)cn(C)c(=O)c2[nH]1" ?
[out] 0.87

====

test system: HEK-293T; test: Incucyte cell viability with HEK293T; assay type: toxicity, cell-based; conditions: human, 24 h, 10 µM, compound concentration 10 uM, replicate number 2, timepoint 24 hours; note: unitless GR value; below 1 slowed growth and below 0 cell loss
Tag: MET if measured Growth Rate is not below 0.7, NOT MET if it is.

INSERT INTO results (molecule, group_label) VALUES
  ('COCCN1CCC(c2cc(CN(C)C(=O)c3cccc(Oc4ccccc4)c3)ccn2)CC1', 'MET');

[in] Dear colleague, could you confirm whether "Cl.O=C(O)c1cc(-c2ccc(C3CCNCC3)cc2)c2ccc(-c3ccc(C(F)(F)F)cc3)cc2c1" has Growth Rate at or above 0.7?
[out] NOT MET

[in] Now consider "CC[C@H]1CN2CCc3cc(OC)c(OC)cc3[C@@H]2C[C@@H]1C[C@H]1NCCc2cc(OC)c(OC)cc21" and answer again.
[out] NOT MET

[in] Moving on to "C[C@@H]1CC(=O)Nc2cccc(-c3ccc4c(c3)c(-c3cnn(C)c3)nn4C)c2N1"
[out] NOT MET

[in] Now the same for "COc1cc2nc(N3CCN(C(=O)COc4c(OC)cccc4C(C)C)CC3)nc(N)c2cc1OC.Cl.Cl"
[out] MET

These entries and their values trace back to ChEMBL document CHEMBL5058564.
